The values you see were collected from patent US10052331B2.

- Tested on: Wnt activity (Wnt-responsive Sp5 promoter-luciferase reporter in SW480 cells)
- protocol: Wnt activity screening assay: Sp5-Luc reporter gene in SW480 colon carcinoma cells
- Type: cell-based
- conditions_used: Homo sapiens
measurement_type: IC50 (nM)
Give bare numbers, in nM.

CCCCC(=O)Nc1cncc(-c2cc3c(-c4nc5c(-c6cc(F)cc(NCCN(C)C)c6)cncc5[nH]4)n[nH]c3cn2)c1
227

Give the value of IC50 reported for the following: CS(=O)(=O)NCc1cc(F)cc(-c2cncc3[nH]c(-c4n[nH]c5cnc(-c6cncc(NC(=O)c7ccccc7)c6)cc45)nc23)c1
774

====

- Test system: Wnt activity (Wnt-responsive Sp5 promoter-luciferase reporter in SW480 cells)
- protocol: Wnt activity screening assay: Sp5-Luc reporter gene in SW480 colon carcinoma cells
- Assay type: cell-based
- conditions_used: Homo sapiens
measurement_type: log10 of IC50 (log10 of the value in nM)
Scale type: logarithmic (base 10). Underlying IC50 unit: nM.

Below, 4 compounds whose answers are already recorded.
CC(C)CC(=O)Nc1cncc(-c2cc3c(-c4nc5c(-c6ccc(F)cc6)cncc5[nH]4)n[nH]c3cn2)c1 [Compound 28]
2.23
CCC(=O)Nc1cncc(-c2cc3c(-c4nc5c(-c6cccc(F)c6)cncc5[nH]4)n[nH]c3cn2)c1 [Compound 1]
1.79
CCNCc1cncc(-c2cc3c(-c4nc5c(-c6cccc(F)c6)cncc5[nH]4)n[nH]c3cn2)c1 [Compound 6]
1.13
CCCC(=O)Nc1cncc(-c2cc3c(-c4nc5c(-c6ccccc6F)cncc5[nH]4)n[nH]c3cn2)c1 [Compound 69]
1.85

Provide log10 of IC50 for all items below, preserving their order.
1. Fc1ccc(-c2cncc3[nH]c(-c4n[nH]c5cnc(-c6cncc(CN7CCCC7)c6)cc45)nc23)cc1 [Compound 40]
2. CN(C)Cc1cncc(-c2cc3c(-c4nc5c(-c6cccc(F)c6)cncc5[nH]4)n[nH]c3cn2)c1 [Compound 13]

1. 3.03
2. 1.90

====

Please provide measured pEC50 for the entries that follow.
- Tested on: primary human fibroblasts derived from IPF patients (LL29 cells)
- protocol: Inhibition of fibrotic process: αSMA staining in TGF-β1-treated primary human fibroblasts from IPF patients (LL29 cells)
- Assay type: cell-based
- conditions_used: Fibroblast, 96 h, LL29 cells treated with TGF-β1 (20 ng/mL), 4 days, 11-point dose-response from 10 μM to 1.87 nM, read-out: Inhibition of fibrosis EC50
Give bare numbers, as −log10 of the molar value.

The examples below pair each entry with its known result.
c1ccc(-c2cncc3[nH]c(-c4n[nH]c5cnc(-c6cncc(CNCC7CCCC7)c6)cc45)nc23)nc1
6.19
c1cc(-c2cncc3[nH]c(-c4n[nH]c5cnc(-c6cncc(CNCC7CCCC7)c6)cc45)nc23)co1
6.04

For each of the compounds below, note its pEC50.
1. CCCC(=O)Nc1cncc(-c2cc3c(-c4nc5c(-c6ccc(F)cc6)cncc5[nH]4)n[nH]c3cn2)c1
2. CN1CCN(c2cncc3[nH]c(-c4n[nH]c5cnc(-c6cncnc6)cc45)nc23)CC1
3. CCCCC(=O)Nc1cncc(-c2cc3c(-c4nc5c(-c6ccc(F)cc6)cncc5[nH]4)n[nH]c3cn2)c1
4. CCCCC(=O)Nc1cncc(-c2cc3c(-c4nc5c(-c6cccc(F)c6)cncc5[nH]4)n[nH]c3cn2)c1

7.12
6.02
7.12
6.84

====

Exercise: state measured log10(EC50) for each of the molecules provided.
- Test system: primary human fibroblasts derived from IPF patients (LL29 cells)
- protocol: Inhibition of fibrotic process: αSMA staining in TGF-β1-treated primary human fibroblasts from IPF patients (LL29 cells)
- Type: cell-based
- conditions_used: Fibroblast, 96 h, LL29 cells treated with TGF-β1 (20 ng/mL), 4 days, 11-point dose-response from 10 μM to 1.87 nM, read-out: Inhibition of fibrosis EC50
Hi team, quick reminder: these entries are log10 of EC50 (nM).

Worked examples follow.
CCNCc1cncc(-c2cc3c(-c4nc5c(-c6ccc(C)s6)cncc5[nH]4)n[nH]c3cn2)c1 [Compound 344]
1.78
Cc1ccc(-c2cncc3[nH]c(-c4n[nH]c5cnc(-c6cncc(NC(=O)C7CCCC7)c6)cc45)nc23)s1 [Compound 359]
2.84

For every listed record, write down its log10(EC50).
1. Fc1cccc(-c2cncc3[nH]c(-c4n[nH]c5cnc(C6=CCNCC6)cc45)nc23)c1 [Compound 886]
2. FC1(F)CCN(Cc2cncc(-c3cc4c(-c5nc6c(-c7cccs7)cncc6[nH]5)n[nH]c4cn3)c2)C1 [Compound 311]
3. Cc1ccc(-c2cncc3[nH]c(-c4n[nH]c5cnc(-c6cncc(NC(=O)C(C)(C)C)c6)cc45)nc23)s1 [Compound 346]

1.86
2.40
1.48

====

- Tested on: primary human fibroblasts derived from IPF patients (LL29 cells)
- protocol: Inhibition of fibrotic process: αSMA staining in TGF-β1-treated primary human fibroblasts from IPF patients (LL29 cells)
- Assay type: cell-based
- conditions_used: Fibroblast, 96 h, LL29 cells treated with TGF-β1 (20 ng/mL), 4 days, 11-point dose-response from 10 μM to 1.87 nM, read-out: Inhibition of fibrosis EC50
measurement_type: EC50

CCCC(=O)Nc1cncc(-c2cc3c(-c4nc5c(-c6cc(F)cc(CNS(C)(=O)=O)c6)cncc5[nH]4)n[nH]c3cn2)c1
> 10000 nM
CCCC(=O)Nc1cncc(-c2cc3c(-c4nc5c(-c6ccncc6)cncc5[nH]4)n[nH]c3cn2)c1
≥ 9990 nM
Fc1cccc(-c2cncc3[nH]c(-c4n[nH]c5cnc(-c6ccccn6)cc45)nc23)c1
584 nM
O=C(Nc1cncc(-c2cc3c(-c4nc5c(-c6ccccc6F)cncc5[nH]4)n[nH]c3cn2)c1)C1CCC1
≤ 9 nM

Would you be so kind as to report EC50 for each listed record?
1. c1ccc(CNCc2cncc(-c3cc4c(-c5nc6c(-c7ccsc7)cncc6[nH]5)n[nH]c4cn3)c2)cc1
2. CN1CCN(c2cncc3[nH]c(-c4n[nH]c5cnc(-c6cncc(NC(=O)C7CCCC7)c6)cc45)nc23)CC1
3. Fc1cccc(-c2cncc3[nH]c(-c4n[nH]c5cnc(-c6cncc(CN7CCC(F)(F)C7)c6)cc45)nc23)c1
4. CN1CCN(c2cncc3[nH]c(-c4n[nH]c5cnc(-c6cncc(N)c6)cc45)nc23)CC1
5. CC(C)CC(=O)Nc1cncc(-c2cc3c(-c4nc5c(-c6cc(O)cc(F)c6)cncc5[nH]4)n[nH]c3cn2)c1
6. CN(C)Cc1cncc(-c2cc3c(-c4nc5c(-c6cccs6)cncc5[nH]4)n[nH]c3cn2)c1
7. CCC(=O)Nc1cncc(-c2cc3c(-c4nc5c(-c6cccnc6)cncc5[nH]4)n[nH]c3cn2)c1

1. 2630 nM
2. ≥ 9990 nM
3. ≤ 9 nM
4. ≤ 9 nM
5. ≤ 9 nM
6. ≤ 9 nM
7. 18 nM

====

- Test system: Wnt activity (Wnt-responsive Sp5 promoter-luciferase reporter in SW480 cells)
- protocol: Wnt activity screening assay: Sp5-Luc reporter gene in SW480 colon carcinoma cells
- Format: cell-based
- conditions_used: Homo sapiens
measurement_type: IC50 (nM)
Answers are plain numbers, in nM.

CCCCC(=O)Nc1cncc(-c2cc3c(-c4nc5c(-c6ccccc6F)cncc5[nH]4)n[nH]c3cn2)c1
127
CCCCC(=O)Nc1cncc(-c2cc3c(-c4nc5c(-c6ccoc6)cncc5[nH]4)n[nH]c3cn2)c1
115
c1ccc(-c2cncc3[nH]c(-c4n[nH]c5cnc(-c6cncc(CNCC7CCCC7)c6)cc45)nc23)nc1
945
CC(C)C(=O)Nc1cncc(-c2cc3c(-c4nc5c(N6CCN(C)CC6)cncc5[nH]4)n[nH]c3cn2)c1
557

--- query ---
Would you please give the reported IC50 of O=C(Nc1cncc(-c2cc3c(-c4nc5c(-c6ccc(F)cc6)cncc5[nH]4)n[nH]c3cn2)c1)C1CCC1 with Wnt activity (Wnt-responsive Sp5 promoter-luciferase reporter in SW480 cells)?
165

====

For each record, write down the corresponding IC50.
- Tested on: Wnt activity (Wnt-responsive Sp5 promoter-luciferase reporter in SW480 cells)
- protocol: Wnt activity screening assay: Sp5-Luc reporter gene in SW480 colon carcinoma cells
- Format: cell-based
- conditions_used: Homo sapiens
Give bare numbers, in nM.

# count of solved cases: 2
Fc1cccc(-c2cncc3[nH]c(-c4n[nH]c5cnc(-c6cncc(CN7CCC(F)(F)C7)c6)cc45)nc23)c1
31.1
O=C(Nc1cncc(-c2cc3c(-c4nc5c(-c6cccs6)cncc5[nH]4)n[nH]c3cn2)c1)C1CC1
35.1

Retrieve IC50 measured for Fc1cccc(-c2cncc3[nH]c(-c4n[nH]c5cnc(C6=CCNCC6)cc45)nc23)c1 and print it.
1940

====

- Test system: Wnt activity (Wnt-responsive Sp5 promoter-luciferase reporter in SW480 cells)
- protocol: Wnt activity screening assay: Sp5-Luc reporter gene in SW480 colon carcinoma cells
- Assay type: cell-based
- conditions_used: Homo sapiens
Exercise: state measured IC50 for each of the compounds provided.
Give bare numbers, in µM.

CCCC(=O)Nc1cncc(-c2cc3c(-c4nc5c(-c6ccsc6)cncc5[nH]4)n[nH]c3cn2)c1
0.033

For each of the compounds below, state IC50.
1. CCCC(=O)Nc1cncc(-c2cc3c(-c4nc5c(-c6cccc(F)c6)cncc5[nH]4)n[nH]c3cn2)c1
2. CN(C)CCNc1cc(F)cc(-c2cncc3[nH]c(-c4n[nH]c5cnc(-c6cncc(CNCC7CCCC7)c6)cc45)nc23)c1
3. Oc1cncc(-c2cc3c(-c4nc5c(-c6cccc(F)c6)cncc5[nH]4)n[nH]c3cn2)c1

1: 0.017; 2: 1.21; 3: 0.059
